# Lookup of reported AUC(0-t) keyed by entry
protocol: Determination of pharmacokinetic parameters in rats
Format: in vivo
assay_setup: male, Wistar Han (Hanover-Wistar), Crl:WI(GLx/BRL/Han)IGS BR; rat, oral gavage, 10 mg/kg, plasma; read-out: AUC0→24 (extrapolated)
Your answer should be a plain number; it is taken to be in ng·h/mL.

[2H]C([2H])([2H])C(c1cc(-c2cc(Cl)c[nH]c2=O)cc(/C=C/c2ccc(NS(C)(=O)=O)cc2)c1OC)(C([2H])([2H])[2H])C([2H])([2H])[2H]
1000

Would you kindly look at the next entry?
-- ask For COc1c(/C=C/c2ccc(NS(C)(=O)=O)cc2)cc(-c2cc(Cl)c[nH]c2=O)cc1C(C)(C)C [I-3 (non-deuterated), reference compound] , what is its reported AUC(0-t)?
-- reply 365

* * *

Here, each record is paired with measured AUC data.
protocol: Determination of pharmacokinetic parameters in rats
Type: in vivo
assay_setup: male, Wistar Han (Hanover-Wistar), Crl:WI(GLx/BRL/Han)IGS BR; rat, oral gavage, 10 mg/kg, plasma

[2H]C([2H])([2H])C(c1cc(-c2cc(Cl)c[nH]c2=O)cc(/C=C/c2ccc(NS(C)(=O)=O)cc2)c1OC)(C([2H])([2H])[2H])C([2H])([2H])[2H]
0.81 µg·h/mL

Turning now to a further record.
-- ask Need AUC of COc1c(/C=C/c2ccc(NS(C)(=O)=O)cc2)cc(-c2cc(Cl)c[nH]c2=O)cc1C(C)(C)C [I-3 (non-deuterated), reference compound] , thanks.
-- reply 0.338 µg·h/mL

* * *

protocol: Determination of pharmacokinetic parameters in rats
Format: in vivo
assay_setup: male, Wistar Han (Hanover-Wistar), Crl:WI(GLx/BRL/Han)IGS BR; rat, oral gavage, 10 mg/kg, plasma
Cmax values, listed per item
Numeric answer only, unit ng/mL assumed.

[2H]C([2H])([2H])C(c1cc(-c2cc(Cl)c[nH]c2=O)cc(/C=C/c2ccc(NS(C)(=O)=O)cc2)c1OC)(C([2H])([2H])[2H])C([2H])([2H])[2H]
83.4

-- ask Which Cmax value is on record for COc1c(/C=C/c2ccc(NS(C)(=O)=O)cc2)cc(-c2cc(Cl)c[nH]c2=O)cc1C(C)(C)C [I-3 (non-deuterated), reference compound] ?
-- reply 55.8
